# system: T1, extracellular domain of human receptor β-Klotho with a C-terminal Poly-His tag (human, UniProt Q86Z14 1-996)
# T1 construct: extracellular domain; Immobilised on an NTA chip at 1,000 RU; also called human β-Klotho protein; KLB; not shown: Poly-His tag at the C-terminus
# T1 sequence (looked up): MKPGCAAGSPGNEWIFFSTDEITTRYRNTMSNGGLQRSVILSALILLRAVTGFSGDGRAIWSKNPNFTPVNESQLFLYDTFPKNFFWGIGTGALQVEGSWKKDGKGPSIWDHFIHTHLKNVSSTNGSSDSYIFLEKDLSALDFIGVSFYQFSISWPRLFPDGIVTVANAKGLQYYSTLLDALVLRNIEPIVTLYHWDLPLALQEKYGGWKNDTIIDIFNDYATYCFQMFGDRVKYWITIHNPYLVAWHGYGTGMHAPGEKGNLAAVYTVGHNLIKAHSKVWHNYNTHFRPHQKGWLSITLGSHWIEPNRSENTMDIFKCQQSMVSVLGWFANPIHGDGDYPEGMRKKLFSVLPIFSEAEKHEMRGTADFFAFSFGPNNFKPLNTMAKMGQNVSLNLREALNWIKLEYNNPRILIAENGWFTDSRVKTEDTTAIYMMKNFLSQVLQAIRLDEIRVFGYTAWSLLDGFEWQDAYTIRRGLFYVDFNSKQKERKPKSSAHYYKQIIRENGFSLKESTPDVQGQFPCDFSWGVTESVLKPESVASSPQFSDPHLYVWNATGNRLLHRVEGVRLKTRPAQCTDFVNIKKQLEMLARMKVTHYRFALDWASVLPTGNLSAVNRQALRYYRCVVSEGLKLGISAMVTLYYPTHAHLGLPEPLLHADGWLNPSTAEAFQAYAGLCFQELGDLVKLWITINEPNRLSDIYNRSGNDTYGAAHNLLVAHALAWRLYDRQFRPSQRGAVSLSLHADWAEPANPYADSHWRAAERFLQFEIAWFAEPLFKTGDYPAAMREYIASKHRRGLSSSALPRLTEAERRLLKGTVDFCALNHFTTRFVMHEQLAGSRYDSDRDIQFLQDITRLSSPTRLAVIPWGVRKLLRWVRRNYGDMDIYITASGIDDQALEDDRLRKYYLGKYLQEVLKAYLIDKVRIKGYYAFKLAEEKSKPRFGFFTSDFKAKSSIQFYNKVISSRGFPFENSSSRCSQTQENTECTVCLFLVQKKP
# procedure text: SPR, Biacore-8K; His-tagged β-Klotho ECD on NTA chip, FGF21 mutant as analyte, kinetic fit
Measured Kd accompanies every entry in the list below.
The reply should be a number in nM, with the unit left off.

FGF21 (170C/Ins-172G/173C) mutant 1409 (ligand, intramolecular disulfide bond between C170 and C173) HPIPDSSPLLQFGGQVRQRYLYTDDAQQTEAHLEIREDGTVGGAADQSPESLLQLKALKPGVIQILGVKTSRFLCQRPDGALYGSLHFDPEACSFRELLLEDGYNVYQSEAHGLPLHLPGQKSPHRDPAPRGPARFLPLPGLPPALPEPPGILAPQPPDVGSSDPLSLVCPGCQGRSPSYAS :: 59.4
FGF21 (121Q, 168L) mutant 1414 (ligand, Control that stands for wild-type FGF21; An alanine is added before His1 of mature FGF21; also called FGF21 control mutant 1414) HPIPDSSPLLQFGGQVRQRYLYTDDAQQTEAHLEIREDGTVGGAADQSPESLLQLKALKPGVIQILGVKTSRFLCQRPDGALYGSLHFDPEACSFRELLLEDGYNVYQSEAHGLPLHLPGQKSPHRDPAPRGPARFLPLPGLPPALPEPPGILAPQPPDVGSSDPLSLVGPSQGRSPSYAS :: 51.2
FGF21 (170C/173C) mutant 1411 (ligand, disulfide bond introduced between 170C and 173C, Only a trace amount of incorrect dimers is reported) HPIPDSSPLLQFGGQVRQRYLYTDDAQQTEAHLEIREDGTVGGAADQSPESLLQLKALKPGVIQILGVKTSRFLCQRPDGALYGSLHFDPEACSFRELLLEDGYNVYQSEAHGLPLHLPGQKSPHRDPAPRGPARFLPLPGLPPALPEPPGILAPQPPDVGSSDPLSLVCPSCGRSPSYAS :: 69.4

Note: attention shifts to another entry.
For the binder shown here, FGF21 (P171G) mutant 1407 (ligand, also called FGF21 mutant P171G) HPIPDSSPLLQFGGQVRQRYLYTDDAQQTEAHLEIREDGTVGGAADQSPESLLQLKALKPGVIQILGVKTSRFLCQRPDGALYGSLHFDPEACSFRELLLEDGYNVYQSEAHGLPLHLPGQKSPHRDPAPRGPARFLPLPGLPPALPEPPGILAPQPPDVGSSDPLSLVGGSQGRSPSYAS , give the reported Kd.
42.5
